Reference for the values: paper PMC4999056

# System: YFV
# METHOD_DESCRIPTION: microbe, parasite or virus in culture
# Type: cell-based, yellow fever virus
# CONDITION_SUMMARY: Yellow fever virus, Vero B, read-out: Yellow fever EC50
Task for the reader: assign each of the following compounds its reported pEC50.
Conceptually, pEC50 converts a concentration in mol/L into minus its log10.

Please give the measured pEC50 for this compound: Cc1ccc(NC(=O)c2ccccc2C(=O)NCc2ccccc2-c2ccsc2)cc1 [7j]
5.59

Please give the measured pEC50 for this compound: Cc1cc(-c2ccccc2NC(=O)c2ccccc2C(=O)Nc2ccc(F)cc2)[nH]n1 [7m]
4.92

Please give the measured pEC50 for this compound: O=C(NCc1ccc(-c2ccsc2)cc1)c1nccnc1C(=O)Nc1ccc(F)cc1 [6k]
4.73

Please give the measured pEC50 for this compound: Cc1ccc(NC(=O)c2ccccc2C(=O)Nc2ccc(C)cc2-c2ccsc2)cc1 [7g]
5.72

Please give the measured pEC50 for this compound: Cc1ccc(NC(=O)c2ccccc2C(=O)Nc2ccc(C)cc2-c2cccs2)cc1 [7d]
4.63

Please give the measured pEC50 for this compound: Cc1ccc(NC(=O)c2ccccc2C(=O)Nc2ccc(F)cc2)c(-c2cccs2)c1 [7b]
4.63

Please give the measured pEC50 for this compound: Cc1ccc(NC(=O)c2ccccc2C(=O)Nc2ccc(F)cc2)c(-c2ccsc2)c1 [7h]
5.19

----------
# System: YFV
# METHOD_DESCRIPTION: microbe, parasite or virus in culture
# Assay type: cell-based, yellow fever virus
# CONDITION_SUMMARY: Yellow fever virus, Vero B, read-out: Yellow fever EC50
Each record is given label 1 if its reported EC50 is strictly below 4 µM. Records at or above 4 µM are given label 0.

Is EC50 strictly under 4 µM for the entry "Cc1ccc(NC(=O)c2nccnc2C(=O)Nc2ccccc2-c2cc(C)n[nH]2)cc1" ?
label 1

Is EC50 strictly under 4 µM for the entry Cc1ccc(NC(=O)c2ccccc2NC(=O)c2ccc(F)cc2)c(-c2ccsc2)c1 [13a] ?
label 0

Is EC50 strictly under 4 µM for the entry "Cc1cc(-c2ccccc2NC(=O)c2nccnc2C(=O)Nc2ccc(F)cc2)[nH]n1" ?
label 0

Is EC50 strictly under 4 µM for the entry "Cc1ccc(NC(=O)c2nccnc2C(=O)Nc2ccc(F)cc2)c(-c2cccs2)c1" ?
label 0

Is EC50 strictly under 4 µM for the entry "O=C(NCc1ccc(-c2ccsc2)cc1)c1ccccc1C(=O)Nc1ccc(F)cc1" ?
label 0

Is EC50 strictly under 4 µM for the entry Cc1ccc(NC(=O)c2ccccc2NC(=O)c2ccc(F)cc2)c(-c2ccncc2)c1 [13c] ?
label 0

Is EC50 strictly under 4 µM for the entry "Cc1ccc(NC(=O)c2nc[nH]c2C(=O)Nc2ccc(F)cc2)c(-c2cc(C)n[nH]2)c1" ?
label 1

Is EC50 strictly under 4 µM for the entry "Cc1ccc(NC(=O)c2ccccc2C(=O)NCc2ccc(-c3ccsc3)cc2)cc1" ?
label 1

----------
# System: YFV
# METHOD_DESCRIPTION: microbe, parasite or virus in culture
# Assay type: cell-based, yellow fever virus
# CONDITION_SUMMARY: read-out: Yellow fever EC50
ENDPOINT: pEC50
Conceptually, pEC50 converts a concentration in mol/L into minus its log10.

Query pEC50 on YFV for "Cc1ccc(NC(=O)c2nccnc2C(=O)NCc2ccccc2-c2ccsc2)cc1"
5.27

----------
Task for the reader: assign each of the following molecules its reported CC50.
# METHOD_DESCRIPTION: in vitro
# CONDITION_SUMMARY: chlorocebus aethiops, Yellow fever CC50 (visual)
Remember to put the unit after the number in your answer.

Please give the measured CC50 for this molecule: Cc1ccc(NC(=O)c2ccccc2NC(=O)c2ccc(F)cc2)c(-c2cccnc2)c1 [13d]
39 µM

Please give the measured CC50 for this molecule: Cc1ccc(NC(=O)c2ccccc2NC(=O)c2ccc(F)cc2)c(-c2ccncc2)c1 [13c]
30 µM

Please give the measured CC50 for this molecule: Cc1ccc(NC(=O)c2ccccc2NC(=O)c2ccc(F)cc2)c(-c2ccc(C)s2)c1 [13b]
12.5 µM

----------
# METHOD_DESCRIPTION: in vitro
# CONDITION_SUMMARY: green monkey
ENDPOINT: CC50

Please give the measured CC50 for this compound: Cc1ccc(NC(=O)c2ccccc2C(=O)Nc2ccc(C)cc2-c2ccsc2)cc1 [7g]
> 116 µM

Please give the measured CC50 for this compound: Cc1ccc(NC(=O)c2nccnc2C(=O)Nc2ccc(C)cc2-c2cc(C)n[nH]2)cc1 [6b]
> 116 µM

Please give the measured CC50 for this compound: Cc1ccc(NC(=O)c2nccnc2C(=O)Nc2ccc(C)cc2-c2cccs2)cc1 [6d]
> 116 µM

----------
# Tested on: YFV
# METHOD_DESCRIPTION: microbe, parasite or virus in culture
# Type: cell-based, yellow fever virus
ENDPOINT: Yellow fever SI

Please give the measured Yellow fever SI for this compound: Cc1ccc(NC(=O)c2nccnc2C(=O)NCc2ccc(-c3ccsc3)cc2)cc1 [6l]
>5

Please give the measured Yellow fever SI for this compound: O=C(NCc1ccc(-c2ccsc2)cc1)c1nccnc1C(=O)Nc1ccc(F)cc1 [6k]
>6

Please give the measured Yellow fever SI for this compound: Cc1ccc(NC(=O)c2ccccc2C(=O)Nc2ccc(F)cc2)c(-c2ccsc2)c1 [7h]
10

Please give the measured Yellow fever SI for this compound: Cc1ccc(NC(=O)c2ccccc2C(=O)Nc2ccc(F)cc2)c(-c2cccs2)c1 [7b]
>1.6

Please give the measured Yellow fever SI for this compound: Cc1cc(-c2ccccc2NC(=O)c2nccnc2C(=O)Nc2ccc(F)cc2)[nH]n1 [6m]
10

Please give the measured Yellow fever SI for this compound: Cc1ccc(NC(=O)c2ccccc2C(=O)Nc2ccc(C)cc2-c2cccs2)cc1 [7d]
>1.6

----------
Task for the reader: assign each of the following molecules its reported Dengue SI.
# Tested on: DENV (serotype 2)
# METHOD_DESCRIPTION: microbe, parasite or virus in culture
# Type: cell-based, Dengue virus serotype 2

Query Dengue SI on DENV (serotype 2) for Cc1cc(-c2ccccc2NC(=O)c2nccnc2C(=O)Nc2ccc(F)cc2)[nH]n1 [6m]
>55

Query Dengue SI on DENV (serotype 2) for O=C(NCc1ccc(-c2ccsc2)cc1)c1ccccc1C(=O)Nc1ccc(F)cc1 [7k]
>7

Query Dengue SI on DENV (serotype 2) for Cc1ccc(NC(=O)c2ccccc2C(=O)NCc2ccc(-c3ccsc3)cc2)cc1 [7l]
>8

Query Dengue SI on DENV (serotype 2) for Cc1ccc(NC(=O)c2nccnc2C(=O)Nc2ccc(F)cc2)c(-c2cc(C)n[nH]2)c1 [6a]
>4

Query Dengue SI on DENV (serotype 2) for Cc1ccc(NC(=O)c2ccccc2C(=O)Nc2ccc(F)cc2)c(-c2cccs2)c1 [7b]
>29

Query Dengue SI on DENV (serotype 2) for Cc1ccc(NC(=O)c2ccccc2C(=O)Nc2ccc(C)cc2-c2cccs2)cc1 [7d]
>8

Query Dengue SI on DENV (serotype 2) for Cc1ccc(NC(=O)c2ccccc2C(=O)Nc2ccccc2-c2cc(C)n[nH]2)cc1 [7n]
>9

Query Dengue SI on DENV (serotype 2) for Cc1ccc(NC(=O)c2nccnc2C(=O)Nc2ccc(C)cc2-c2cc(C)n[nH]2)cc1 [6b]
>235

Query Dengue SI on DENV (serotype 2) for Cc1ccc(NC(=O)c2nccnc2C(=O)Nc2ccc(C)cc2-c2cccs2)cc1 [6d]
>235

Query Dengue SI on DENV (serotype 2) for Cc1ccc(NC(=O)c2ccccc2C(=O)Nc2ccc(F)cc2)c(-c2ccc(C)s2)c1 [7f]
>39

Query Dengue SI on DENV (serotype 2) for Cc1ccc(NC(=O)c2ccccc2C(=O)Nc2ccc(C)cc2-c2cc(C)n[nH]2)cc1 [7c]
>4

Query Dengue SI on DENV (serotype 2) for Cc1ccc(NC(=O)c2nccnc2C(=O)NCc2ccc(-c3ccsc3)cc2)cc1 [6l]
>8
